test: protein stability index of a GFP-peptide fusion (yeast GPS) (PSI 1-4); higher = more stable; sorted into four equal gates, so the index is relative within each strain; settings: ubr1∆
Classification field: Y = protein stability index at or over 3; N = protein stability index under 3.

Example entries begin here.
GGEKTVAALALLFAINS [SMC1]; N
NIYDQLRNKLIESNKLA [RRP6]; N
GEKNSDDYSNEDNEMLE [YJR042W/NUP85]; N
EGGEAEFIFGTYNMIDA [ARP7]; N
LDNKGSGEDAEEELWNS [YIL149C/MLP2]; Y
ELKPVSLDNKTLDDLVT [YJL041W/NSP1]; Y
VSKKELYAIKKVTLNKE [BRR2]; N
KIGEEDYGEEIKSGVAK [MTW1]; Y
MDETQTRAKIGGLNDPR [RPO21]; N
KQLVEKAELRLAIADSP [ECM29]; Y

Task: Test whether the sequence LQYLPLYAVSTFENTNN [SIR4] records protein stability index of 3 or higher.
Result: N

Task: Test whether the sequence LALTTLSEPLIKIGIRV [YCG1] records protein stability index of 3 or higher.
Result: N
